# TARGET ENTITY: DPP-4 (manufactured by Sigma, derived from porcine kidney) (Sus scrofa, UniProt P22411)
# Construct: derived from porcine kidney; purchased Sigma; host or cells: porcine kidney (tissue-derived)
# Sequence (P22411 whole entry): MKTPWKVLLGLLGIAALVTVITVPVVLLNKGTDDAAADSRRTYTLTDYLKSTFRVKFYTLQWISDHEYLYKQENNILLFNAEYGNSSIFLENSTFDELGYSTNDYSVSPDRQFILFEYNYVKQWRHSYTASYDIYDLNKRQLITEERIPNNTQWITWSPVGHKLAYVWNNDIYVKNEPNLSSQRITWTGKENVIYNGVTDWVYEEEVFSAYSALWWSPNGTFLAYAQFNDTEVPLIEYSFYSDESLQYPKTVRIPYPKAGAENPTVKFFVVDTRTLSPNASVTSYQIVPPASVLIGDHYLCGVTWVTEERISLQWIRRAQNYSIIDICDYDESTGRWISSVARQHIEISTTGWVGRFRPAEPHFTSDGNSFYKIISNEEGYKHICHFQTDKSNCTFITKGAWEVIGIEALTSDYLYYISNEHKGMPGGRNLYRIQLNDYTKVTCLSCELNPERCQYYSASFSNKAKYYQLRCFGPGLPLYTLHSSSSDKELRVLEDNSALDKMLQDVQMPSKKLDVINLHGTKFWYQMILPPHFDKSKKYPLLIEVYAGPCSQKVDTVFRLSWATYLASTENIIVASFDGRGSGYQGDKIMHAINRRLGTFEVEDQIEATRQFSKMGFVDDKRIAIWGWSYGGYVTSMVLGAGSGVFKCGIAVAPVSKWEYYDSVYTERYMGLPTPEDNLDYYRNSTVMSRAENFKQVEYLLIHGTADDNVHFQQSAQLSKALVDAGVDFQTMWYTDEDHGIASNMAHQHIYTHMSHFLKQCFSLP
# PROCEDURE SUMMARY: DPP-4 inhibition rate and IC50 measurement, fluorescence of AMC freed from Gly-Pro-MCA
# Format: biochemical
# MEASUREMENT SETUP: Table 1; sample 0.35 mg/ml; substrate Gly-Pro-MCA; pH 7.5, 37° C.; read-out: Inhibition rate (%) at 0.35 mg/ml time
Ends that are not written are not given here.
# binarize inhibition at 350 µg/mL: threshold 60% inclusive, high side y, low side n

GAIGPA [Example 12, Gly-Ala-Ile-Gly-Pro-Ala]
y
GAIGPS [Example 13, Gly-Ala-Ile-Gly-Pro-Ser]
y
GAVGP [Example 15, Gly-Ala-Val-Gly-Pro]
n
H-GPAGP-OH [Example 1, Gly-Pro-Ala-Gly-Pro]
y
GAVGPA [Example 14, Gly-Ala-Val-Gly-Pro-Ala]
y

All values here come from patent US9340579B2.
